- Target Desc: T1, human ASGR-1 mutant construct H203 (human, UniProt P07306 1-291)
- T1 construct: Arg/Glu scanning: non-arginine residues were changed to arginine; Transiently expressed on CHO-S cells
- T1 sequence: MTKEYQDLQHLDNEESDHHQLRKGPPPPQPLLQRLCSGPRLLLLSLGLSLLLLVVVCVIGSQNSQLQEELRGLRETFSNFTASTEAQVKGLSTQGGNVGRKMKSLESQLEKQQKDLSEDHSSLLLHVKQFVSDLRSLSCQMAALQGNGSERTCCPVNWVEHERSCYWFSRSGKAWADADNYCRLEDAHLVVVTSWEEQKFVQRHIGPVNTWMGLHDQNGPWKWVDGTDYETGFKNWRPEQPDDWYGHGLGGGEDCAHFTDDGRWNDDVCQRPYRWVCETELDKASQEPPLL
- Protocol: FACS ratio: H203 normalized value / wt normalized value
So I've got a bunch of binders here, and I need their Normalization to wt ASGR1 Binding values.

Binder	Reported Metric	Result
65C12 (antibody, V domains shown, mAb) VH: EVQLVESGGGLVKPGGSLRLSCAASGFTFRSFSLNWVRQAPGKGLEWVSSISSSSSYIYYADSVKGRFTISRDNAKNSLYLQMNSLRAEDTAVYYCARDAYSHYWGQGTLVTVSS VL: EIVMTQSPATLSVFPGEGATLSCRASQSVSINLAWYQQKPGQAPRLLIYGASTRATGIPARFNASGSGTEFTLSISSLQSENFAVYYCQQYNTWPLTFGGGTKVEIK	Normalization to wt ASGR1 Binding	1
194A4 (antibody, V domains shown, mAb) VH: QVQLVQSGTEVKKPGASLKVSCKASGYTFTVYYLNWVRQAPGQGLEWMGWINPNSGGTNYAQKFQGRVTMTRDTSISTAYMELSRLRSDDTAVYYCARGYDILTGWGQGTLVTVSS VL: EIVLTQSPGTLSLSPGERATLSCRASRGVSNIYLAWYQQKPGQAPRLLIYGASNRATGIPDRFSGSGSGTDFTLTISRLEPEDFAVYYCQHNDYSMFTFGPGTKVDIK	Normalization to wt ASGR1 Binding	0.616
60E8 (antibody, V domains shown, mAb) VH: QVQLQESGPGLVRPSATLSLTCTVSGGSISRSSYYWGWIRQPPGKGLEWIGSIYYSGSASYNPSLKSRVTISVDTSENQFSLRLSSVTAADTAVYYCARLDSGWSFDYWGQGTLVTVSS VL: DIQMTQSPSSLSASVGDRVTFTCRASQGIRNDLGWFQQKPGKAPKRLIYAASSLQSGVPSRFSGSGSGTEFTLTISSLQPEDFATYYCLQHSSYPLTFGGGTKVEIK	Normalization to wt ASGR1 Binding	11.7
198D2 (antibody, V domains shown, mAb) VH: QVQLVESGGGVVQPGRSLRLSCAASGFTFRSYGMHWVRQAPGKGLEWVAVIIYDGSYKYYADSVKGRFTISRDNSKNTLYLQMNSLRAEDTAVYYCARTYSGGMDVWGQGTTVTVSS VL: QSVLTQPPSVSAAPGQKVTISCSGSSSNIGSNYVSWYQQLPGTAPKVLIYDNNKRPSGIPDRFSGSKSGTSATLGITGLQTGDEADYYCGTWDSRLNVGVFGGGTKLTVL	Normalization to wt ASGR1 Binding	1.09

Q: Returns the measured Normalization to wt ASGR1 Binding for the input binder. Input: 22G5 (antibody, V domains shown, mAb) VH: EVQLLESGGGLVQPGGSLRLSCAASGFTFSSYAMNWVRQAPGMGLEWVSVISRSGGYTYYADSVKGRFTISRDNSKNTLYLQMNSLRAEDTAVYYCASRLAVAGSEAFDIWGQGTLVTVSS VL: DIQMTQSPSSLSASVGDRVTITCRASQNISSYLNWYQQKQGKAPKLLIYAASSLQNGVPSRFSGRGSGTDFTLTISSLQPEDFATYYCQQSYRTPLFTFGPGTKVDFK
A: 1.37
